# measurement-target: NAD-dependent protein deacetylase sirtuin-2 (Homo sapiens)
# Sequence (whole entry): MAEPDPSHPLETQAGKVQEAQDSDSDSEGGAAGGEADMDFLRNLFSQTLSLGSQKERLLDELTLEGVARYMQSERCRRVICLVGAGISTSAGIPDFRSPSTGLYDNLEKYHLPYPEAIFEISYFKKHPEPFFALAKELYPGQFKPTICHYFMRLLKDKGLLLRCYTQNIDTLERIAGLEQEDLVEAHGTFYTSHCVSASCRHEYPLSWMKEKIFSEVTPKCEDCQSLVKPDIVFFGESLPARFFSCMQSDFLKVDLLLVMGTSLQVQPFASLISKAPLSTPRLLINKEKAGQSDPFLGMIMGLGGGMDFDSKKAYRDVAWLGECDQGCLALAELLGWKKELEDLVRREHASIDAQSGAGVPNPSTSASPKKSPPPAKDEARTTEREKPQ
# assay-comment: Inhibition of human recombinant SIRT2 expressed in Escherichia coli at 50 uM incubated at 37 degC for 2 hrs by Fluor de Lys fluorescence assay
Listed here: items and their measured inhibition.
Give the value, in units of %, as a plain number.

The examples below pair each entry with its known result.
O=C1Oc2ccc3ccccc3c2CC1C(=O)c1ccncc1 (stereo unspecified)    94.5
Cc1cccc(-c2[nH]c(=S)[nH]c(=O)c2Cc2c(O)ccc3ccccc23)c1    36.1
O=C1Oc2ccc3ccccc3c2CC1C(=O)c1ccc(-c2ccccc2)cc1 (stereo unspecified)    88.8
O=C1Oc2ccc3ccccc3c2CC1C(=O)c1cccc2ccccc12 (stereo unspecified)    89.5
Cc1cccc(C(=O)C2Cc3c(ccc4ccccc34)OC2=O)c1 (stereo unspecified)    88.1
O=c1[nH]c(=S)[nH]c(-c2ccsc2)c1Cc1c(O)ccc2ccccc12    43.4

What does the data say about its inhibition? Entry: "O=c1[nH]c(=S)[nH]c(-c2ccc3ccccc3c2)c1Cc1c(O)ccc2ccccc12" 47.9

I would be grateful if you could share the reported inhibition for "O=c1[nH]c(=S)[nH]c(-c2ccccc2Cl)c1Cc1c(O)ccc2ccccc12" . 29.8

Entry under review: "Cn1cccc1-c1[nH]c(=S)[nH]c(=O)c1Cc1c(O)ccc2ccccc12" . Reported inhibition? 46.2

Entry O=C1Oc2ccc3ccccc3c2CC1C(=O)c1ccc2ccccc2c1 (stereo unspecified) has what inhibition? 91.1

Give the measured inhibition of O=C1Oc2ccc3ccccc3c2CC1C(=O)c1ccccc1 (stereo unspecified) . 20.2
